Reported EC50 is given for each of the following molecules.
System: recombinant NL-Rluc virus (NL4-3 with Renilla Luciferase gene) in MT-2 cells
Assay: Inhibition of HIV replication (NL-Rluc luciferase reporter virus, MT-2 cells)
Format: cell-based, human immunodeficiency virus (HIV)
Details: NL43, 120 h, read-out: EC50 μM
Where a name gives a salt, the structure may show the parent alone.
METRIC NAME: EC50

Cc1ccc(F)c(-c2c(C(OC(C)(C)C)C(=O)O)c(C)nc3cc(-c4ccccc4)nn23)c1 (stereo not shown) :: 5 µM
Cc1ccccc1-c1cccc(-c2cc3nc(C)c([C@H](OC(C)(C)C)C(=O)O)c(-c4cc(F)c5c(c4C)CCCO5)n3n2)c1 :: 0.02 µM
Cc1nc2c(C)c(-c3ccccc3)nn2c(-c2cc(F)c3c(c2C)CCCO3)c1[C@H](OC(C)(C)C)C(=O)O :: 0.2 µM
Cc1nc2c(-c3ccc(F)cc3)c(-c3ccccc3)nn2c(-c2cc(F)c3c(c2C)CCCO3)c1C(OC(C)(C)C)C(=O)O (stereo not shown) :: 1.6 µM
COc1cccc(-c2cc3nc(C)c(C(OC(C)(C)C)C(=O)O)c(-c4cc(F)c5c(c4C)CCCO5)n3n2)c1 (stereo not shown) :: 0.35 µM
Cc1nc2cc(-c3cccc(OCc4ccccc4)c3)nn2c(-c2cc(F)c3c(c2C)CCCO3)c1C(OC(C)(C)C)C(=O)O (stereo not shown) [Example 93, TFA salt] :: 0.1 µM
Cc1nc2cc(-c3ccccc3)nn2c(-c2ccc3ncccc3c2)c1C(OC(C)(C)C)C(=O)O (stereo not shown) :: 2.4 µM
Cc1ccc(-c2cc3nc(C)c(C(OC(C)(C)C)C(=O)O)c(-c4cc(F)c5c(c4C)CCCO5)n3n2)cc1 (stereo not shown) [Example 46, TFA salt] :: 0.09 µM
CSc1ccc(-c2c(C(OC(C)(C)C)C(=O)O)c(C)nc3cc(-c4ccccc4)nn23)cc1 (stereo not shown) :: 3.1 µM
Cc1nc2cc(-c3ccc4c(c3)CCCO4)nn2c(-c2ccc3c(c2)CCCO3)c1C(OC(C)(C)C)C(=O)O (stereo not shown) [Example 113, TFA salt] :: 0.11 µM
Cc1nc2cc(-c3cccc(OCc4ccc(Cl)cc4)c3)nn2c(-c2cc(F)c3c(c2C)CCCO3)c1C(OC(C)(C)C)C(=O)O (stereo not shown) [Example 106, TFA salt] :: 0.04 µM
Cc1nc2c(-c3cccc(OCc4ccc(F)cc4)c3)c(-c3ccccc3)nn2c(-c2cc(F)c3c(c2C)CCCO3)c1[C@H](OC(C)(C)C)C(=O)O :: 3.3 µM
Cc1nc2c(-c3ccccc3)cnn2c(-c2ccc3c(c2)CCCO3)c1C(OC(C)(C)C)C(=O)O (stereo not shown) [Example 45, TFA salt] :: 0.24 µM

Value source: patent US8633200B2
